IC50 by entry:
tested on: KRAS patient-derived spheroids with HUVEC/MSC, viability; test: Anticancer human tumor 519858-162-T-J1-PDC patient-derived colon adenocarcinoma cell line growth inhibition [KRAS2]; conditions: curve of first compound; second compound 0.316 µM;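 also: compound exposure lasted seven days before readout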

Examples with their reported IC50 follow.
CC(C)NCC(C(=O)N1CCN(c2ncnc3c2C(C)CC3O)CC1)c1ccc(Cl)cc1 (stereo not drawn) + COc1cc2nc(C)nc(NC(C)c3cc(N)cc(C(F)(F)F)c3)c2cc1OC1CCOC1    > 10000 nM
CN(C)C/C=C/C(=O)Nc1cc2c(Nc3ccc(F)c(Cl)c3)ncnc2cc1O[C@H]1CCOC1 + COc1cc2nc(C)nc(NC(C)c3cc(N)cc(C(F)(F)F)c3)c2cc1OC1CCOC1    > 100 nM

--- query ---
For the molecule shown here, Cn1ncnc1[C@H]1c2n[nH]c(=O)c3cc(F)cc(c23)N[C@@H]1c1ccc(F)cc1 + C=CC(=O)N1CCN(c2nc(=O)n(-c3c(C)ccnc3C(C)C)c3nc(-c4c(O)cccc4F)c(F)cc23)C(C)C1 , give the reported IC50.
> 100 nM

All figures here come from PubChem BioAssay AID1963872.
